Reported values of kinase still bound, per cent of control for individual entries
# experimental-target: UniProt:O75747
# Sequence (O75747 whole entry, looked up): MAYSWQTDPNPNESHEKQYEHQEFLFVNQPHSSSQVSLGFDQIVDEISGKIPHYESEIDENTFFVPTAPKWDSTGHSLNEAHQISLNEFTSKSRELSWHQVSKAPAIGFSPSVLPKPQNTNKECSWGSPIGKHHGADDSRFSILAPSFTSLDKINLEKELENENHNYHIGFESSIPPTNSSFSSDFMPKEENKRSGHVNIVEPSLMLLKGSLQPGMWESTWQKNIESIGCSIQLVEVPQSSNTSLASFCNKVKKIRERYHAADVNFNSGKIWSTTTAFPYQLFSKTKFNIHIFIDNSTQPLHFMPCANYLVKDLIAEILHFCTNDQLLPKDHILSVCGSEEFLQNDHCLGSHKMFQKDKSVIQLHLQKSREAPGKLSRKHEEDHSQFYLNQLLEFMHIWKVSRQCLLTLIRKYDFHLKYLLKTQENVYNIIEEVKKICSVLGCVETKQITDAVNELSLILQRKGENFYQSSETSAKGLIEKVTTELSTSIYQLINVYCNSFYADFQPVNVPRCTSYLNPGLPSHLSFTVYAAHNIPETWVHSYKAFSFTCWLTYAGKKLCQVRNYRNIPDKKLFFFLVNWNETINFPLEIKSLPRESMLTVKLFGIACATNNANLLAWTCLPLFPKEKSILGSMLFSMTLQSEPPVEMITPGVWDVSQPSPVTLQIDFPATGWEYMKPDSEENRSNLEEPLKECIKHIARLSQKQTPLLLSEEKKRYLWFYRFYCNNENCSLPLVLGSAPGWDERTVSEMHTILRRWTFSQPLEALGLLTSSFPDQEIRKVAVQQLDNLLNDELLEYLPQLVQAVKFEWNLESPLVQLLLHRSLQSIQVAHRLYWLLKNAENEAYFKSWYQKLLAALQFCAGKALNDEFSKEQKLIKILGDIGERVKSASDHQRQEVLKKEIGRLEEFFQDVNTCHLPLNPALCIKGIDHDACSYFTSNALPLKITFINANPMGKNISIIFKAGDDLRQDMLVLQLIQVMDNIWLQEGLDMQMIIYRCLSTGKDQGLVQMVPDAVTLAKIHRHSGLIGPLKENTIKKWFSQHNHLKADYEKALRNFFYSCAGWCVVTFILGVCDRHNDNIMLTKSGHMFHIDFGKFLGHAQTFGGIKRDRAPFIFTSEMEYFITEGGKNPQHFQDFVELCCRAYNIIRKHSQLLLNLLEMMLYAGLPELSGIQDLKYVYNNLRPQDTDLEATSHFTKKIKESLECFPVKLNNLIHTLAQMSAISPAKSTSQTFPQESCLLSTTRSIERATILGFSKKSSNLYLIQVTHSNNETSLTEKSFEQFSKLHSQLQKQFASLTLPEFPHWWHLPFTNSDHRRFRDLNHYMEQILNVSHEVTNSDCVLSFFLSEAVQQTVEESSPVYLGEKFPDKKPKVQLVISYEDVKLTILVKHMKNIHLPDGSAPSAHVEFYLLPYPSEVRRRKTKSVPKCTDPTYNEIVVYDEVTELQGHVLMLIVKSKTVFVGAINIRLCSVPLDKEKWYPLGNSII
# measurement-notes: KINOMEscan competition binding
# experimental-parameters: compound 10.0 µM

Worked examples, 5 compounds total:
Prompt: // lookup kinase still bound, per cent of control for "CCCS(=O)(=O)Nc1ccc(F)c(C(=O)c2c[nH]c3ncc(Cl)cc23)c1F"
Completion: 55%

Prompt: // lookup kinase still bound, per cent of control for "CCN1CCN(Cc2ccc(NC(=O)c3ccc(C)c(/C=C/c4cnc5[nH]ccc5c4OC)c3)cc2C(F)(F)F)CC1"
Completion: 82%

Prompt: // lookup kinase still bound, per cent of control for "Cc1cn(-c2cc(C(=O)Nc3ccc(C)c(NC(=O)c4ccno4)c3)cc(C(F)(F)F)c2)cn1"
Completion: 100%

Prompt: // lookup kinase still bound, per cent of control for "CC(=O)c1c(C)c2cnc(Nc3ccc(N4CCNCC4)cn3)nc2n(C2CCCC2)c1=O"
Completion: 20%

Prompt: // lookup kinase still bound, per cent of control for "CNC(=O)Nc1ccc(-c2nc(N3CC4CCC(C3)O4)c3cnn(C4CCC5(CC4)OCCO5)c3n2)cc1"
Completion: 22%

---
Prompt: // lookup kinase still bound, per cent of control for "O=c1[nH]c2ccccc2n1C1CCN(Cc2ccc(-c3nc4cc5[nH]cnc5cc4nc3-c3ccccc3)cc2)CC1"
Completion: 75%

Prompt: // lookup kinase still bound, per cent of control for "CCOc1cc(N2CCC(O)CC2)ccc1Nc1ncc2c(n1)N(C)c1ccccc1C(=O)N2C"
Completion: 100%

Prompt: // lookup kinase still bound, per cent of control for CC1=C(C(=O)Nc2cc3cn[nH]c3cc2F)C(c2ccc(C(F)(F)F)cc2)CC(=O)N1 (stereo not given)
Completion: 52%

Prompt: // lookup kinase still bound, per cent of control for "C=CC(=O)Nc1ccc(C(=O)c2sc(Nc3ccc(N4CCN(C)CC4)cc3OC)nc2N)cc1"
Completion: 100%

Prompt: // lookup kinase still bound, per cent of control for "CCN(CCO)CCCOc1ccc2c(Nc3cc(CC(=O)Nc4cccc(F)c4)[nH]n3)ncnc2c1"
Completion: 21%

---

# System: MET (human), P08581 [M1250T]
# measurement-notes: KINOMEscan competition binding
# experimental-parameters: compound 10.0 µM
measurement-label: kinase still bound, per cent of control (%)
Give your result in % as a bare value.

Worked examples, 5 compounds total:
Prompt: // lookup kinase still bound, per cent of control for "O=c1cc(N2CCOCC2)oc2c(-c3cccc4c3sc3ccccc34)cccc12"
Completion: 67

Prompt: // lookup kinase still bound, per cent of control for "O=C(O)c1ccc(Nc2ncc3c(n2)-c2ccc(Cl)cc2C(c2c(F)cccc2F)=NC3)cc1"
Completion: 58

Prompt: // lookup kinase still bound, per cent of control for "CCN1CCN(Cc2ccc(Nc3ncc4c(n3)N(C)c3ccccc3C(=O)N4C)cc2C(F)(F)F)CC1"
Completion: 71

Prompt: // lookup kinase still bound, per cent of control for "C=CC(=O)Nc1cc(-n2c(=O)ccc3cnc4ccc(-c5cn[nH]c5)cc4c32)ccc1C"
Completion: 80

Prompt: // lookup kinase still bound, per cent of control for "COc1cc(N2CCN(C)CC2)ccc1Nc1ncc2c(n1)N(C)c1ccccc1C(=O)N2C"
Completion: 100

---
Prompt: // lookup kinase still bound, per cent of control for CC1=C(C(=O)Nc2cc3cn[nH]c3cc2F)C(c2ccc(C(F)(F)F)cc2)CC(=O)N1 (configuration not stated)
Completion: 23

Prompt: // lookup kinase still bound, per cent of control for "COc1ccc(N(C(=O)Oc2c(C)cccc2C)c2ccnc(Nc3ccc(N4CCN(C)CC4)cc3)n2)c(OC)c1"
Completion: 5.4

Prompt: // lookup kinase still bound, per cent of control for "CN(C)C/C=C/C(=O)Nc1cccc(Nc2ncc3c(n2)N(C)c2ccccc2C(=O)N3C)c1"
Completion: 43

Prompt: // lookup kinase still bound, per cent of control for "CCN1CCN(C(=O)Cc2ccc(Nc3ncc(F)c(Nc4ccc(C(=O)Nc5ccccc5Cl)cc4)n3)cc2)CC1"
Completion: 11

Prompt: // lookup kinase still bound, per cent of control for "C=CC(=O)Nc1ccc(C(=O)c2sc(Nc3ccc(N4CCN(C)CC4)cc3OC)nc2N)cc1"
Completion: 91

Prompt: // lookup kinase still bound, per cent of control for "Cc1ccc2nc(NCCN)c3ncc(C)n3c2c1"
Completion: 100

Prompt: // lookup kinase still bound, per cent of control for "O=C1Nc2ccc(I)cc2/C1=C/c1cc(Br)c(O)c(Br)c1"
Completion: 80

Prompt: // lookup kinase still bound, per cent of control for "COc1cc(C(=O)N2CCC(N3CCN(C)CC3)CC2)ccc1Nc1ncc2c(n1)N(C)c1ccccc1C(=O)N2C"
Completion: 96

Prompt: // lookup kinase still bound, per cent of control for "CCC(=O)N1CCN(c2ccc(-n3c(=O)ccc4cnc5ccc(-c6cnc7ccccc7c6)cc5c43)cc2C(F)(F)F)CC1"
Completion: 79

Prompt: // lookup kinase still bound, per cent of control for "Cc1ccc(NC(=O)c2cccc(C(C)(C)C#N)c2)cc1Nc1ccc2ncn(C)c(=O)c2c1"
Completion: 64

Prompt: // lookup kinase still bound, per cent of control for "CCN(CCO)CCCOc1ccc2c(Nc3cc(CC(=O)Nc4cccc(F)c4)[nH]n3)ncnc2c1"
Completion: 52

Prompt: // lookup kinase still bound, per cent of control for "C=CC(=O)Nc1cc(NC(=O)c2ccc(C)c(NC(=O)c3ccno3)c2)cc(C(F)(F)F)c1"
Completion: 86

Prompt: // lookup kinase still bound, per cent of control for "CNC(=O)c1cc(Oc2ccc(NC(=O)Nc3ccc(Cl)c(C(F)(F)F)c3)cc2)ccn1"
Completion: 83

Prompt: // lookup kinase still bound, per cent of control for "N#CCNC(=O)c1ccc(-c2ccnc(Nc3ccc(N4CCOCC4)cc3)n2)cc1"
Completion: 100

The reported measurements were obtained from the kinase profiling compilation of Christmann-Franck et al. (2016).
